// provenance: ChEMBL document CHEMBL1201862

- Test system: HCT-15
reported-endpoint: log10 of GI50 (log10 of the value in µM)
Scale type: logarithmic (base 10). Underlying GI50 unit: µM.

Sample records with log10 of GI50:
# compound, experimental-value
data = [
    ("COc1c(C)c(OC)c2c(c1O)[C@@H]1[C@@H]3Cc4c(OC)c(C)c(OC)c(O)c4[C@H](CNC(=O)c4cnc5ccccc5n4)N3[C@@H](C#N)[C@H](C2)N1C", -2.08),
    ("Clc1nc(Nc2nc3ccccc3[nH]2)nc(Cl)c1-c1ccccc1", 1.16),
    ("CC[C@@]1(O)C(=O)OCc2c1cc1n(c2=O)Cc2c-1nc1ccccc1c2/C=N/NC(=O)C[N+](C)(C)C", 1.15),
    ("Nc1nc(N)c(CCCCc2ccc([N+](=O)[O-])cc2)c(N)n1", 0.82),
    ("COc1cc(C2c3cc4c(cc3[C@@H](Nc3ccc(Oc5ccccc5)cc3)C3COC(=O)[C@H]23)OCO4)cc(OC)c1O (stereo partly drawn)", 0.11),
]

Give log10 of GI50 for "Cc1cc(N(C)c2ccccc2)nc(N(C)c2ccccc2)n1" tested on HCT-15.
1.51

Give log10 of GI50 for "COc1ccc2c(c1)/C(=C\c1c(C)nc3sc(C)cn13)C(=O)N2" tested on HCT-15.
-0.31

Give log10 of GI50 for "CC(/C=C/c1ccccc1)=N\NC(N)=S" tested on HCT-15.
1.44

Give log10 of GI50 for "CCOC(=O)c1c(SC(=O)C(C)(C)Oc2ccc(Cl)cc2)n(-c2ccccc2)c(=S)n(-c2ccccc2)c1=O" tested on HCT-15.
1.78

Give log10 of GI50 for "CN(C)CCNC(=O)c1cccc2nc3c(C(=O)NCCN(C)C)cccc3nc12" tested on HCT-15.
0.47

Give log10 of GI50 for CC1CC[C@@]2(OC1)OC1C[C@H]3[C@@H]4CC=C5C[C@@H](OC6OC(CO)C(OC7OC(CO)C(O)C(O)C7O)C(O)C6OC6OC(C)C(O)C(O)C6O)CC[C@]5(C)[C@H]4CC[C@]3(C)C1[C@@H]2C (stereo partly drawn) tested on HCT-15.
0.55

Give log10 of GI50 for "COc1cc(OC)c(OC)cc1/C=C/c1ccc2ccccc2n1" tested on HCT-15.
0.88

---

- System: Hs-578T
- assay-procedure: NCI tumour cell line growth inhibition, 48 h
Activity calls are given as the source filed them. Rule as the data show it: active = GI50 up to about 1.1 µM and inactive = higher.
# GI50 annotations

Sample records with GI50:
# compound, GI50
measured = [
    ("CN(C)CCC(=O)N1C/C(=C/c2ccccc2)C(=O)/C(=C\\c2ccccc2)C1", "3.55 µM (inactive)"),
    ("COc1c(C)c(OC)c2c(c1O)[C@@H]1[C@@H]3Cc4c(OC)c(C)c(OC)c(O)c4[C@H](CNC(=O)c4cnc5ccccc5n4)N3[C@@H](C#N)[C@H](C2)N1C", "0.00134 µM (active)"),
    ("C/C=C1\\CC(C(=O)OCC)CCCCCCCCCCC1=O (configuration not stated)", "28.9 µM (inactive)"),
    ("CC(C)(C)C1=CC(=C2C=Cc3ccccc3O2)C=C(C(C)(C)C)C1=O", "7 µM (inactive)"),
    ("O=C(Cc1ccccc1CCO)NCCc1ccccc1", "> 100 µM (inactive)"),
    ("CCOC(=O)C1=C(C)N(Cc2ccc(Cl)cc2Cl)C2(O)C(OC)CC(=O)C3C(=O)N(c4ccccc4)C(=O)C132 (configuration not stated)", "9.06 µM (inactive)"),
    ("COc1ccc2c(C)cc(N/N=C(\\C)C=O)nc2c1", "15.5 µM (inactive)"),
    ("CNC(=O)OC(C)CN1c2ccccc2Sc2ccc(Cl)cc21 (configuration not stated)", "> 10 µM (inactive)"),
]

Give GI50 for "N=C1C(=N)c2ccccc2-c2ccccc21" tested on Hs-578T.
2.64 µM (inactive)

Give GI50 for "N#Cc1c(-c2ccc([N+](=O)[O-])cc2)c(C#N)c(=O)n(NS(=O)(=O)c2ccccc2)c1-c1ccccc1" tested on Hs-578T.
> 100 µM (inactive)

Give GI50 for "CC1(C)N=C(c2ccccc2)SC12S[C@@H]1CCCC[C@H]1S2" tested on Hs-578T.
4.57 µM (inactive)

Give GI50 for "CC(=O)Nc1nc(NC(C)=O)c2nc(CO)[nH]c2n1" tested on Hs-578T.
> 100 µM (inactive)

Give GI50 for CC1=C(C(=O)OCCO[N+](=O)[O-])C(c2cccc([N+](=O)[O-])c2)C(C(=O)OC(C)C)=C(C)N1 (configuration not stated) tested on Hs-578T.
7.71 µM (inactive)

Give GI50 for "COc1ccc(S(=O)(=O)Nc2ccc(-c3csc(N4C(=O)/C(=C/c5cccs5)N=C4c4ccccc4)n3)cc2)cc1Cl" tested on Hs-578T.
35.2 µM (inactive)
